Reported Fold Induction over background values follow for various binders
- test.system: CD137 (UniProt Q07011 24-255, limits assumed)
- Sequence (Q07011 24-255 limits assumed): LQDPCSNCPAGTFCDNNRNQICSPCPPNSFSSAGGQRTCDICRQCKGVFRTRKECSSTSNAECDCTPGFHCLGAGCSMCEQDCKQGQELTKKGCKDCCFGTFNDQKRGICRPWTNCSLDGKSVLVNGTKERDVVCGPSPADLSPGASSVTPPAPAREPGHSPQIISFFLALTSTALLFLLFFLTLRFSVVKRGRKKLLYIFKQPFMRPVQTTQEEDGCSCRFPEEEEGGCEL
- protocol: cell-based or functional assay
Report the value in fold over background with no unit label.

Worked cases, answers included:
BCY12375 ([Ac]C[tBuAla]EE(dK)PYCFADPY[Nle]C[Dap(PYA)]; carries Palmitic acid-PEG10 (Example 1); Cys residues bonded to TATA scaffold; Ac-SDKCSAGWLTMCQK[PYA]LHLCPSH; Cys residues bonded to TATA scaffold) peptide 1: SDKCSAGWLTMCQKLHLCPSH peptide 2: CXEEKPYCFADPYXCX
3
BCY12242 (Ac-C[tBuAla]PE[D-Lys(PYA)]PYCFADPY[Nle]CA; Cys residues bonded to TATA scaffold; [Ac]D[HArg]CSAGWLTMCQK(Ac)LKLCPSH; Cys residues bonded to TATA scaffold) peptide 1: DXCSAGWLTMCQKLKLCPSH peptide 2: CXPEXPYCFADPYXCA
13
BCY12230 (Ac-C[tBuAla]PE[D-Lys(PYA)]PYCFADPY[Nle]CA; Cys residues bonded to TATA scaffold; [Ac]D[HArg]CSKGWLTMCQK(Ac)LHLCPSH; Cys residues bonded to TATA scaffold) peptide 1: DXCSKGWLTMCQKLHLCPSH peptide 2: CXPEXPYCFADPYXCA
10

Next binder, Fold Induction over background to be filled in.
Recorded Fold Induction over background (binder BCY12229 (Ac-C[tBuAla]PE[D-Lys(PYA)]PYCFADPY[Nle]CA; Cys residues bonded to TATA scaffold; [Ac]D[HArg]CSAGWLTMCQKLHLCPSH; Cys residues bonded to TATA scaffold) peptide 1: DXCSAGWLTMCQKLHLCPSH peptide 2: CXPEXPYCFADPYXCA ): 8
